Entry source: patent US9758477B2

Assay: Cytotoxicity in HepDES19 cells, MTT assay
Type: cell-based
Conditions: human, Table 10, HepDES19 cells, unit inferred
# CC50 at 6 days per entry
ASSAY_ENDPOINT: CC50 at 6 days

1) O=C(Nc1ccc(F)c(F)c1)c1cc(S(=O)(=O)NC2CCCC2)ccc1F ... > 50 µM
2) O=C(Nc1ccc(F)c(F)c1)c1cc(S(=O)(=O)NC2CCCCC2)ccc1F ... > 50 µM
3) CCC(C)NS(=O)(=O)c1ccc(F)c(C(=O)Nc2ccc(F)c(F)c2)c1 (stereo not drawn) ... > 50 µM
